For each record, write down the corresponding solubility.
Experiment: Solubility test of GPR 119 agonist compounds (Nephelostar)
Format: physicochemical
Conditions: aqueous with cosolvent or surfactant or cyclodextrin, kinetic from dmso stock; pH 6, 5% DMSO aqueous solution; read-out: Solubility pH 6

Documented solubility of C[C@@]1(C(N)=O)C[C@@H](O)CN1C(=O)c1ccc(-c2ccc(OCC3CCN(CC4(C(F)(F)F)CCC4)CC3)cn2)c(F)c1 [Compound 1329] : > 296 µg/mL

Documented solubility of C[C@@]1(C(N)=O)C[C@@H](O)CN1C(=O)c1ccc(-c2ccc(OCC3CCN(CC4(C(F)(F)F)CCC4)CC3)cn2)cc1F [Compound 1290] : > 296 µg/mL

Documented solubility of CC(C)(CN1CCC(COc2ccc(-c3ccc(C(=O)N4C[C@H](O)C[C@H]4C(N)=O)cc3F)nc2)CC1)C(F)(F)F [Compound 1323] : 355 µg/mL

Documented solubility of CC(C)(CN1CCC(COc2ccc(-c3ccc(C(=O)N4C[C@H](O)C[C@H]4C(N)=O)c(F)c3)nc2)CC1)C(F)(F)F [Compound 1268] : > 283 µg/mL

Documented solubility of CCc1cnc(N2CCC(c3nc(COc4ccc(-n5cnnn5)cc4)cs3)CC2)nc1 [MBX-2982, reference compound] : 61 µg/mL

Documented solubility of CCC(F)(CC)CN1CCC(COc2ccc(-c3ccc(C(=O)N4C[C@H](O)C[C@@]4(C)C(N)=O)cc3F)nc2)CC1 [Compound 1292] : > 279 µg/mL

Documented solubility of CC(C)(CN1CCC(COc2ccc(-c3ccc(C(=O)N4C[C@H](O)C[C@H]4C(N)=O)cc3)nc2)CC1)C(F)(F)F [Compound 1322] : > 274 µg/mL

Documented solubility of CCC(F)(CC)CN1CCC(COc2ccc(-c3ccc(C(=O)N4C[C@H](O)C[C@@]4(C)C(N)=O)c(F)c3)nc2)CC1 [Compound 1291] : > 279 µg/mL

* * *

Assay: Solubility test of GPR 119 agonist compounds (Nephelostar)
Type: physicochemical
Settings: aqueous with cosolvent or surfactant or cyclodextrin, kinetic from dmso stock; pH 2, 5% DMSO aqueous solution; read-out: Solubility pH 2
For each record, write down the corresponding solubility.

Documented solubility of C[C@@]1(C(N)=O)C[C@@H](O)CN1C(=O)c1ccc(-c2ccc(OCC3CCN(CC4(C(F)(F)F)CCC4)CC3)cn2)c(F)c1 [Compound 1329] : > 296 µg/mL

Documented solubility of NC(=O)[C@@H]1C[C@@H](O)CN1C(=O)c1ccc(-c2ccc(OCC3CCN(CC4(C(F)(F)F)CCC4)CC3)cn2)c(F)c1 [Compound 1286] : > 289 µg/mL

Documented solubility of CC(C)(CN1CCC(COc2ccc(-c3ccc(C(=O)N4C[C@H](O)C[C@H]4C(N)=O)cc3F)nc2)CC1)C(F)(F)F [Compound 1323] : > 283 µg/mL

Documented solubility of CCC(F)(CC)CN1CCC(COc2ccc(-c3ccc(C(=O)N4C[C@H](O)C[C@H]4C(N)=O)cc3F)cc2)CC1 [Compound 1205] : > 271 µg/mL

Documented solubility of CC(C)(CN1CCC(COc2ccc(-c3ccc(C(=O)N4C[C@H](O)C[C@H]4C(N)=O)cc3)nc2)CC1)C(F)(F)F [Compound 1322] : > 274 µg/mL

Documented solubility of CCC(F)(CC)CN1CCC(COc2ccc(-c3ccc(C(=O)N4C[C@H](O)C[C@H]4C(N)=O)c(F)c3)nc2)CC1 [Compound 1279] : > 272 µg/mL
